- system_name: Env of HIV-1 strain X1254_c3 (HIV-1)
- method_notes: cell-based or functional assay
attribute_measured: neutralization IC50 (µg/mL)
Enter your answer as a number in µg/mL; do not include the unit.

{"columns": ["binder", "attribute_measured", "obs_value"],
 "data": [
  ["γ15κ18 (antibody, V domains shown) VH: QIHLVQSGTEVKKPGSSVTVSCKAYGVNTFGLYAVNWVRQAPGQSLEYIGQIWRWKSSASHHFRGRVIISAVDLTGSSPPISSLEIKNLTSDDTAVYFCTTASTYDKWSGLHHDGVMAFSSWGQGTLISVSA VL: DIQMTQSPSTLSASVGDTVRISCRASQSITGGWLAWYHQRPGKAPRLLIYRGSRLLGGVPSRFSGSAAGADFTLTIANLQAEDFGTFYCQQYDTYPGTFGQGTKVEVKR", "neutralization IC50", 2.85]
]}

// next entry
Query: neutralization IC50; subject: γ4κ18 (antibody, V domains shown) VH: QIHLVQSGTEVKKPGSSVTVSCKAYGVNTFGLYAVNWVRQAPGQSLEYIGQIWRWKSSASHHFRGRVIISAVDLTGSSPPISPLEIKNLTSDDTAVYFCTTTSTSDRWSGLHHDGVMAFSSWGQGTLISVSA VL: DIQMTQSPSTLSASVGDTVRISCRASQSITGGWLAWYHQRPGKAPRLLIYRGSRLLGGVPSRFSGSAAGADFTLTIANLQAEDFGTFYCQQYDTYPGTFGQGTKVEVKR 16.2

The measured values listed here are drawn from patent US20180171001A1.
